Could you please report measured A/G for the items listed next?
Species on record: Rattus norvegicus
Assay: Open TG-GATES - Regimen: Daily Repeat
Format: toxicity, organism-based, Sprague-Dawley
Parameters: regimen Daily Repeat, gender Male, age 6 weeks
Details: in vivo, po, 0 mg/kg, […], tissue Plasma, route gavage, dose level Control, time 28 day
Answers are plain numbers.

{"compound": "CN1C(=O)CCS(=O)(=O)C1c1ccc(Cl)cc1 (stereo unspecified)", "A/G": 0.8}
{"compound": "CNC(=C[N+](=O)[O-])NCCSCc1ccc(CN(C)C)o1", "A/G": 1.3}
{"compound": "Nc1c2c(nc3ccccc13)CCCC2", "A/G": 1.1}
{"compound": "CCCc1cc(=O)[nH]c(=S)[nH]1", "A/G": 1.8}
{"compound": "CN(C)CCC(c1ccc(Cl)cc1)c1ccccn1 (stereo unspecified)", "A/G": 0.8}
{"compound": "O=C(OC[C@H]1O[C@@H](OC(=O)c2cc(O)c(O)c(OC(=O)c3cc(O)c(O)c(O)c3)c2)[C@H](OC(=O)c2cc(O)c(O)c(OC(=O)c3cc(O)c(O)c(O)c3)c2)[C@@H](OC(=O)c2cc(O)c(O)c(OC(=O)c3cc(O)c(O)c(O)c3)c2)[C@@H]1OC(=O)c1cc(O)c(O)c(OC(=O)c2cc(O)c(O)c(O)c2)c1)c1cc(O)c(O)c(OC(=O)c2cc(O)c(O)c(O)c2)c1", "A/G": 1.8}

// input: 2 compounds below; output: A/G for each
1. Brc1ccccc1
2. CC(C)NNC(=O)c1ccncc1

1. 0.8
2. 1.1

Please state, for each entry, its recorded A/G.
1. Cc1nnc2n1-c1ccc(Cl)cc1C(c1ccccc1Cl)=NC2
2. NC1=NC(=O)C(c2ccccc2)O1 (stereo unspecified)

0.8
0.8

Given CN/C(=N/CCSCc1nc[nH]c1C)NC#N , respond with its A/G. 1.2
